// reported log10(GI50) per item
Tested on: HT-29
Assay notes: Cytotoxicity against human HT-29 cells by MTT assay
Assay type: functional
Endpoint: log10(GI50) (log10 of the value in µM)

Molecule	Target or system	log10(GI50)
Cc1cc(=O)c2c(O)cc(O[C@@H]3O[C@H](CO[C@@H]4O[C@@H](C)[C@H](O)[C@@H](O)[C@H]4O)[C@@H](O)[C@H](O)[C@H]3O)cc2o1	HT-29	0.78
COc1cccc2c1C(=O)c1c(O)c3c(c(O)c1C2=O)C[C@@](O)(C(=O)CO)C[C@@H]3O[C@H]1C[C@H](N)[C@H](O)[C@H](C)O1 [DOXORUBICIN]	HT-29	-1.22
COc1cc(O)c2c(=O)cc(C)oc2c1 [EUGENIN]	HT-29	1.40
CO[C@H]1[C@H](O[C@H]2CC[C@]3(C=O)[C@H]4CC[C@]5(C)[C@@H](C6=CC(=O)OC6)CC[C@]5(O)[C@@H]4CC[C@]3(O)C2)O[C@H](C)C[C@H]1O[C@@H]1O[C@H](CO)[C@@H](O)[C@H](O)[C@H]1O	HT-29	-1.15
COc1c(O)cc2oc(C)cc(=O)c2c1O [PISONIN B]	HT-29	2.26
COc1c(O[C@@H]2O[C@H](CO[C@@H]3O[C@@H](C)[C@H](O)[C@@H](O)[C@H]3O)[C@@H](O)[C@H](O)[C@H]2O)cc2oc(C)cc(=O)c2c1O	HT-29	0.78

----------
Target or system: Hypoxia inducible factors; HIF-1-alpha, HIF-2-alpha (Homo sapiens, UniProt Q16665+Q99814)
Assay notes: Inhibition of HIF1 activation in human U251 cells stably transfected in pGL2-TK-HRE plasmid under hypoxic condition after 16 to 24 hrs by luciferase reporter gene assay
Format: cell-based
Run parameters: u-251
Endpoint: EC50 (nM)

Chemical smiles	Measured
CO[C@H]1C[C@H](O[C@H]2CC[C@]3(C=O)[C@H]4CC[C@]5(C)[C@@H](C6=CC(=O)OC6)CC[C@]5(O)[C@@H]4CC[C@]3(O)C2)O[C@H](C)[C@H]1O[C@@H]1O[C@H](CO[C@@H]2O[C@H](CO)[C@@H](O)[C@H](O)[C@H]2O)[C@@H](O)[C@H](O)[C@H]1O	40
COc1cccc2c1C(=O)c1c(O)c3c(c(O)c1C2=O)C[C@@](O)(C(=O)CO)C[C@@H]3O[C@H]1C[C@H](N)[C@H](O)[C@H](C)O1	120
C[C@@H]1O[C@@H](O[C@H]2CC[C@]3(C=O)[C@H]4CC[C@]5(C)[C@@H](C6=CC(=O)OC6)CC[C@]5(O)[C@@H]4CC[C@]3(O)C2)[C@H](O)[C@H](O)[C@H]1O	20
CO[C@H]1[C@H](O[C@H]2CC[C@]3(C=O)[C@H]4CC[C@]5(C)[C@@H](C6=CC(=O)OC6)CC[C@]5(O)[C@@H]4CC[C@]3(O)C2)O[C@H](C)C[C@H]1O[C@@H]1O[C@H](CO)[C@@H](O)[C@H](O)[C@H]1O	600
